The origin of these recorded values is the supplement of paper PMC9112550.

system: Escherichia coli TOP10; experiment: shrunken log2 fold change of peptide-encoding DNA abundance (4.5 h post-induction vs induction); higher = less antimicrobial activity (less host growth inhibition); settings: time post-induction: 4.5 h; library: site-saturation at positions 5, 18, 19, 20

seq text | shrunken log2 fold change
RRIRCRPPRLPRPRPRPSYGPRP | -0.627
RRIRRRPPRLPRPRPRPLFVPRP | -0.0826
RRIRKRPPRLPRPRPRPHANPRP | 0.18
RRIRNRPPRLPRPRPRPWPKPRP | 0.0323
RRIRWRPPRLPRPRPRPGVYPRP | 0.221
RRIRVRPPRLPRPRPRPELPPRP | -0.0996
RRIRKRPPRLPRPRPRPLLQPRP | 0.31
RRIRGRPPRLPRPRPRPPKNPRP | 1.11
RRIRCRPPRLPRPRPRPNAMPRP | 0.0678
RRIRLRPPRLPRPRPRPVCKPRP | 0.000959
RRIRNRPPRLPRPRPRPWRCPRP | -0.0792
RRIRIRPPRLPRPRPRPFMSPRP | -0.308

* * *

# shrunken log2 fold change annotations
test system: Escherichia coli TOP10; assay: shrunken log2 fold change of peptide-encoding DNA abundance (4.5 h post-induction vs induction); higher = less antimicrobial activity (less host growth inhibition); settings: time post-induction: 4.5 h; library: site-saturation at positions 5, 18, 19, 20;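 note: peptides expressed intracellularly from a pBAD plasmid library in pooled LB shake-flask culture, induced with 0.3% L-arabinose, DNA abundance read by NGS, three biological replicates, DESeq2 with apeglm shrinkage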
measure name: shrunken log2 fold change

seq text | measure name | readout value
RRIRRRPPRLPRPRPRPIEIPRP | shrunken log2 fold change | 0.0138
RRIRRRPPRLPRPRPRPEPKPRP | shrunken log2 fold change | 1.46
RRIRKRPPRLPRPRPRPYPYPRP | shrunken log2 fold change | -0.125
RRIRTRPPRLPRPRPRPRQHPRP | shrunken log2 fold change | -0.374
RRIRRRPPRLPRPRPRPISRPRP | shrunken log2 fold change | -0.0551
RRIRNRPPRLPRPRPRPAAFPRP | shrunken log2 fold change | -0.0633
RRIRGRPPRLPRPRPRPHDYPRP | shrunken log2 fold change | 0.0282
RRIRNRPPRLPRPRPRPEYWPRP | shrunken log2 fold change | -0.103
RRIRARPPRLPRPRPRPWPDPRP | shrunken log2 fold change | 0.17
RRIRKRPPRLPRPRPRPYRGPRP | shrunken log2 fold change | -0.231
RRIRCRPPRLPRPRPRPIRMPRP | shrunken log2 fold change | -0.339
RRIRQRPPRLPRPRPRPLVPPRP | shrunken log2 fold change | 0.253
RRIRTRPPRLPRPRPRPFKNPRP | shrunken log2 fold change | 0.0716
RRIRERPPRLPRPRPRPGHSPRP | shrunken log2 fold change | -0.134
RRIRPRPPRLPRPRPRPFNTPRP | shrunken log2 fold change | 0.39
RRIRNRPPRLPRPRPRPAHTPRP | shrunken log2 fold change | 0.121
RRIRGRPPRLPRPRPRPLSYPRP | shrunken log2 fold change | 0.00315
RRIRSRPPRLPRPRPRPLVLPRP | shrunken log2 fold change | -0.233
RRIRDRPPRLPRPRPRPPMYPRP | shrunken log2 fold change | -0.405
RRIRLRPPRLPRPRPRPAVYPRP | shrunken log2 fold change | 0.00171
RRIRARPPRLPRPRPRPEYSPRP | shrunken log2 fold change | 0.0132
RRIRKRPPRLPRPRPRPSCSPRP | shrunken log2 fold change | -0.0597
RRIRVRPPRLPRPRPRPWQIPRP | shrunken log2 fold change | 0.00686
RRIRPRPPRLPRPRPRPTIPPRP | shrunken log2 fold change | -0.361
RRIRQRPPRLPRPRPRPVTNPRP | shrunken log2 fold change | 0.0368
RRIRRRPPRLPRPRPRPIIKPRP | shrunken log2 fold change | -0.265
RRIRTRPPRLPRPRPRPTIVPRP | shrunken log2 fold change | -0.0242
RRIRGRPPRLPRPRPRPHEPPRP | shrunken log2 fold change | 1.15
RRIRNRPPRLPRPRPRPCGNPRP | shrunken log2 fold change | -0.0905
